System: SORVU (Sorghum bicolor (L.) Moench ssp. Bicolor, or Sorghum vulgare Pers.)
Test: Test 1B glasshouse assay for herbicidal activity, post-emergence
Format: in vivo
Settings: 360 h, 30 g/ha application rate
assay_readout: pest or weed control at 30 g/ha (%)
Hi! Could you send only the number? It should be in %, unit omitted.

Consider the following illustrative entries.
[
  {
    "compound": "Cc1cc(C#CCl)cc(C)c1C1C(=O)CC(CC2CCOCC2)CC1=O (centres unmarked) [Compound A-8]",
    "assay_system": "SORVU (Sorghum bicolor (L.) Moench ssp. Bicolor, or Sorghum vulgare Pers.)",
    "units_text": "%",
    "pest or weed control at 30 g/ha": 90
  },
  {
    "compound": "CC#Cc1cc(C)c(C2=C(OC(C)=O)CC(c3ccccn3)CC2=O)c(C)c1 (centres unmarked) [Compound A-15]",
    "assay_system": "SORVU (Sorghum bicolor (L.) Moench ssp. Bicolor, or Sorghum vulgare Pers.)",
    "units_text": "%",
    "pest or weed control at 30 g/ha": 80
  }
]

IN: Bench note: what pest or weed control at 30 g/ha did CC#Cc1cc(C)c(C2C(=O)C3CCC(C3)C2=O)c(C)c1 (centres unmarked) [Compound A-5] show?
OUT: 70

IN: Bench note: what pest or weed control at 30 g/ha did Cc1cc(C#CCl)cc(C)c1C1C(=O)C2CCC(C2)C1=O (centres unmarked) [Compound A-6] show?
OUT: 90

IN: Bench note: what pest or weed control at 30 g/ha did CC#Cc1cc(C)c(C2C(=O)CC(CC3CCOCC3)CC2=O)c(C)c1 (centres unmarked) [Compound A-9] show?
OUT: 80
